biological target: human GABAA α1β3γ2 receptor (Homo sapiens (Human), UniProt P14867+P18507); assay: Radioligand binding assay for γ2-containing GABAA subtypes, [3H]Flumazenil competition (α1β3γ2); conditions: Ki α1β3γ2 (nM)/Ki α2β2γ1 (nM)
parameter: γ2/γ1 Selectivity Ratio

| compound | system | parameter | result |
| --- | --- | --- | --- |
| [2H]C([2H])([2H])NC(=O)c1nc2n(n1)-c1ccc(Cl)c(Cl)c1C(c1c(F)cccc1F)=N[C@H]2C [Example 20] | human GABAA α1β3γ2 receptor (Homo sapiens (Human), UniProt P14867+P18507) | γ2/γ1 Selectivity Ratio | 113.1 |
| C[C@@H]1N=C(c2ncccc2F)c2c(ccc(C(F)(F)F)c2Cl)-n2nc(C(=O)N3CCS(=O)(=O)CC3)nc21 [Example 124] | human GABAA α1β3γ2 receptor (Homo sapiens (Human), UniProt P14867+P18507) | γ2/γ1 Selectivity Ratio | 547.2 |
| CCOC1CN(C(=O)c2nc3n(n2)-c2ccc(C(F)(F)F)c(Cl)c2C(c2ncccc2F)=N[C@H]3C)C1 [Example 137] | human GABAA α1β3γ2 receptor (Homo sapiens (Human), UniProt P14867+P18507) | γ2/γ1 Selectivity Ratio | 246.0 |
| CO[C@@H]1CCN(C(=O)c2nc3n(n2)-c2ccc(Cl)c(Cl)c2C(c2c(F)cccc2F)=N[C@H]3C)C1 [Example 46] | human GABAA α1β3γ2 receptor (Homo sapiens (Human), UniProt P14867+P18507) | γ2/γ1 Selectivity Ratio | 146.6 |
| C[C@@H]1N=C(c2c(F)cccc2F)c2c(ccc(C(F)(F)F)c2Cl)-n2c(CO)cnc21 [Example 132] | human GABAA α1β3γ2 receptor (Homo sapiens (Human), UniProt P14867+P18507) | γ2/γ1 Selectivity Ratio | 75.8 |
| C[C@@H]1N=C(c2c(F)cccc2F)c2c(ccc(Cl)c2Cl)-n2nc(S(C)(=O)=O)nc21 [Example 82] | human GABAA α1β3γ2 receptor (Homo sapiens (Human), UniProt P14867+P18507) | γ2/γ1 Selectivity Ratio | 107.3 |
| Cc1c(C(=O)NC[C@@H](C)O)nc2n1-c1ccc(C(F)(F)F)c(Cl)c1C(c1ncccc1F)=N[C@H]2C [Example 162] | human GABAA α1β3γ2 receptor (Homo sapiens (Human), UniProt P14867+P18507) | γ2/γ1 Selectivity Ratio | 210.1 |
